Tested on: DMS-114 complex spheroids with HUVEC/MSC, growth % test/control
Test: Anticancer human tumor DMS-114 cell line growth inhibition [AhR]; active = viability on the fitted dose curve at most 10% of control; inactive = the rest;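 note: spheroids exposed to agents for 7 days before readout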
Conditions: second compound 1 µM; first compound 3.16 µM
Outcome codes: y for active, n for inactive

compound: CC1COCCN1c1cc(C2(S(C)(=N)=O)CC2)nc(-c2ccnc3[nH]ccc23)n1 (stereo unspecified) + Cc1ccccc1N=Nc1ccc(NC(=O)c2ccnn2C)c(C)c1
assigned-category: n
--
compound: O=C(C=Cc1cccc(S(=O)(=O)Nc2ccccc2)c1)NO + CC(CO)NC(=O)c1cc(-c2ccc(Cl)cc2)nn(-c2cnn(C)c2)c1=O
assigned-category: n
--
compound: CC(C)c1c(-c2ccccc2)nc2c(C#N)c[nH]n2c1=O + Cc1cncc(-c2nc(NCCc3c[nH]c4ccccc34)c3ncn(C(C)C)c3n2)c1
assigned-category: n
--
compound: CC(C)c1c(-c2ccccc2)nc2c(C#N)c[nH]n2c1=O + CC(CO)NC(=O)c1cc(-c2ccc(Cl)cc2)nn(-c2cnn(C)c2)c1=O
assigned-category: n
--
compound: Nc1ccn(C2OC(CO)C(O)C2(F)F)c(=O)n1 (stereo unspecified) + CC(CO)NC(=O)c1cc(-c2ccc(Cl)cc2)nn(-c2cnn(C)c2)c1=O
assigned-category: n
--
compound: COc1cccc2c1C(=O)c1c(O)c3c(c(O)c1C2=O)CC(O)(C(=O)CO)CC3OC1CC(N)C(O)C(C)O1 (stereo unspecified) + Cc1ccccc1N=Nc1ccc(NC(=O)c2ccnn2C)c(C)c1
assigned-category: y

Recorded values, source PubChem BioAssay AID1919008.
